# Target Desc: human recombinant USP30 (Homo sapiens, UniProt Q70CQ3)
# Sequence (Q70CQ3 1-517): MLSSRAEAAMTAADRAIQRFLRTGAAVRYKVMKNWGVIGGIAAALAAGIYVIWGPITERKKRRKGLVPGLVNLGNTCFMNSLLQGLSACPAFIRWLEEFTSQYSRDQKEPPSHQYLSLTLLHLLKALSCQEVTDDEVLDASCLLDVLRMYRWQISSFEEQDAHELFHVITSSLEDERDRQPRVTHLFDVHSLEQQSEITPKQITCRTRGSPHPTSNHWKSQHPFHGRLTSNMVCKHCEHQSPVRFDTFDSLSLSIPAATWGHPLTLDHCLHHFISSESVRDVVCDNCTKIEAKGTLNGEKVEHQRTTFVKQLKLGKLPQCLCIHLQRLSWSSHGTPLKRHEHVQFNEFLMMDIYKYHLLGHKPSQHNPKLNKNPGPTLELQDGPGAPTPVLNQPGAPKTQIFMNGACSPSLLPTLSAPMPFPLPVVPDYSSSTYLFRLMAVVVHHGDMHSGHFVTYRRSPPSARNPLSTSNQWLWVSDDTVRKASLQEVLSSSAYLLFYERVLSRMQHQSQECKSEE
# Assay Info: Ubiquitin-Rhodamine 110 Assay for USP30 Activity (USP30 Inhibitor Biochemical Assay)
# Study Conditions: 0.2 nM USP30, 25 nM Ub-Rh110, 30 min preincubation, 30 min at room temperature; read-out: USP30 potency range (USP30 biochemical IC50 assay, IC50 ranges)
pIC50: −log10 of the molar value.
# key: entry, value: pIC50

Molecule: N#CN[C@H]1CC[C@H](C(=O)Nc2ccn(-c3ccccc3)n2)C1 [Compound 12-2]
Target Desc: human recombinant USP30 (Homo sapiens, UniProt Q70CQ3)
pIC50: 4.60 to 5.00
--
Molecule: N#CN[C@H]1C[C@H](C(=O)Nc2nc(C(F)(F)F)c(C3CCCCC3)s2)C1 [Compound 1-31]
Target Desc: human recombinant USP30 (Homo sapiens, UniProt Q70CQ3)
pIC50: > 7.00

Consider the additional molecule presented here.
Req: Returns the measured pIC50 for the input molecule. Input: N#CN[C@H]1CC[C@H](C(=O)N2CCN(c3ccccc3)CC2)C1 [Compound 12-6]
Resp: < 4.60

---

# Target Desc: human recombinant USP30 (Homo sapiens, UniProt Q70CQ3)
# Assay Info: Ubiquitin-Rhodamine 110 Assay for USP30 Activity (USP30 Inhibitor Biochemical Assay)
# Study Conditions: 0.2 nM USP30, 25 nM Ub-Rh110, 30 min preincubation, 30 min at room temperature; read-out: USP30 potency range (USP30 biochemical IC50 assay, IC50 ranges)
pIC50: −log10 of the molar value.
Value Type: pIC50

Molecule: CC(C)Oc1ccccc1-c1ncc(NC(=O)[C@H]2C[C@H](NC#N)C2)s1
Result: 6.00 to 7.00

Req: Returns the measured pIC50 for the input molecule. Input: N#CN[C@H]1C[C@@H](C(=O)Nc2ccn(-c3ccccc3)n2)C1
Resp: 4.60 to 5.00

Req: Returns the measured pIC50 for the input molecule. Input: N#CN[C@H]1CC[C@@H](C(=O)Nc2ncc(C3CCCCC3)s2)CC1
Resp: 6.00 to 7.00

Req: Returns the measured pIC50 for the input molecule. Input: CC1(C)[C@H](NC#N)C[C@H]1C(=O)Nc1cnc(C2CCCCC2)s1
Resp: 6.00 to 7.00

Req: Returns the measured pIC50 for the input molecule. Input: N#CN[C@H]1C[C@H](C(=O)Nc2ccc(N3CCOCC3)cc2)C1
Resp: 4.60 to 5.00

Req: Returns the measured pIC50 for the input molecule. Input: Cn1nc(C2CCCCC2)cc1NC(=O)[C@H]1C[C@H](NC#N)C1
Resp: 6.00 to 7.00

Req: Returns the measured pIC50 for the input molecule. Input: Cn1nc(-c2ccccc2)cc1NC(=O)[C@H]1C[C@H](NC#N)C1
Resp: 6.00 to 7.00

---

# key: entry, value: IC50
# Target Desc: human recombinant USP30 (Homo sapiens)
# Assay Info: Ubiquitin-Rhodamine 110 Assay for USP30 Activity (USP30 Inhibitor Biochemical Assay)
# Study Conditions: 0.2 nM USP30, 25 nM Ub-Rh110, 30 min preincubation, 30 min at room temperature; read-out: USP30 potency range (USP30 biochemical IC50 assay, IC50 ranges)

Compound: N#CN[C@H]1C[C@H](C(=O)Nc2ncc([C@H]3CC4CCC3CC4)s2)C1 [Compound 1-38]
IC50: 100 to 1000 nM
//
Compound: C[C@H]1CCCC[C@H]1c1cnc(NC(=O)[C@H]2C[C@H](NC#N)C2)s1 [Compound 1-22]
IC50: 100 to 1000 nM
//
Compound: Cn1nc(NC(=O)[C@H]2C[C@H](NC#N)C2)cc1C1CCCCC1 [Compound 1-30]
IC50: 100 to 1000 nM
//
Compound: Cc1nc(NC(=O)[C@H]2C[C@H](NC#N)C2)sc1C1CCCCC1 [Compound 1-29]
IC50: < 100 nM

Consider the additional compound presented here.
Req: Returns the measured IC50 for the input compound. Input: N#CN[C@H]1C[C@H](C(=O)Nc2nc(Cl)c(C3CC3)s2)C1 [Compound 1-36]
Resp: < 100 nM

---

# Target Desc: human recombinant USP30 (Homo sapiens)
# Assay Info: Ubiquitin-Rhodamine 110 Assay for USP30 Activity (USP30 Inhibitor Biochemical Assay)
# Study Conditions: 0.2 nM USP30, 25 nM Ub-Rh110, 30 min preincubation, 30 min at room temperature; read-out: USP30 potency range (USP30 biochemical IC50 assay, IC50 ranges)
Value Type: IC50

Sample records with IC50:
Compound: N#CN[C@H]1C[C@H](C(=O)Nc2cccc(C(F)(F)F)c2)C1 [Compound 1-73]
IC50: 0.1 to 1 µM
//
Compound: CC1(C)CCCC[C@@H]1c1ncc(NC(=O)[C@H]2C[C@H](NC#N)C2)s1 [Compound 1-12]
IC50: < 0.1 µM
//
Compound: CN(c1cc(-c2cccc(Cl)c2)on1)C(=O)[C@H]1C[C@H](NC#N)C1 [Compound 1-52]
IC50: 0.1 to 1 µM

Consider the additional compound presented here.
Req: Returns the measured IC50 for the input compound. Input: N#CN[C@H]1C[C@H](C(=O)Nc2ncc([C@H]3CCCC[C@@H]3C(F)(F)F)s2)C1 [Compound 1-34]
Resp: 0.1 to 1 µM

---

# Target Desc: human recombinant USP30 (Homo sapiens, UniProt Q70CQ3)
# Sequence (Q70CQ3 1-517): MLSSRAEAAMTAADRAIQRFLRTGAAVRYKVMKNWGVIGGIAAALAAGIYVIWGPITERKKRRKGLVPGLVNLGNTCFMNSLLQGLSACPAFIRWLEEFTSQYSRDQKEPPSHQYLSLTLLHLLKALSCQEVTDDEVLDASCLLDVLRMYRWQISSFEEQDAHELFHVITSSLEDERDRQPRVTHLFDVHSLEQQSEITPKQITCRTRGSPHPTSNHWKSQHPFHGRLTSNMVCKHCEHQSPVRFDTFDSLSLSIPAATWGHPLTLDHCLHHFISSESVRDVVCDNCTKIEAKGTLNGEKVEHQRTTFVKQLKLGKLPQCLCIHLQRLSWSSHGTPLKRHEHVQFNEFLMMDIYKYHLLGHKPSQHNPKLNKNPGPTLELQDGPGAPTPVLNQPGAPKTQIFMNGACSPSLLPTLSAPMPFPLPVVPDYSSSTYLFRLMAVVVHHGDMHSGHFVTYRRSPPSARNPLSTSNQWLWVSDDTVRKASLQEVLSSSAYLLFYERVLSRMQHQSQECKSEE
# Assay Info: Ubiquitin-Rhodamine 110 Assay for USP30 Activity (USP30 Inhibitor Biochemical Assay)
# Study Conditions: 0.2 nM USP30, 25 nM Ub-Rh110, 30 min preincubation, 30 min at room temperature; read-out: USP30 potency range (USP30 biochemical IC50 assay, IC50 ranges)
pIC50: −log10 of the molar value.
Value Type: pIC50

Compound: COCc1nc(NC(=O)[C@H]2C[C@H](NC#N)C2)sc1C1CCCCC1
pIC50: > 7.00

Req: Returns the measured pIC50 for the input compound. Input: N#CN[C@H]1C[C@H](C(=O)Nc2ncc([C@@H]3CCCC[C@H]3C(F)(F)F)s2)C1 (single isomer, unassigned)
Resp: 6.00 to 7.00

Req: Returns the measured pIC50 for the input compound. Input: CO[C@]1(C(=O)Nc2nc(Cl)c(C(C)(C)C)s2)C[C@@H](NC#N)C1
Resp: > 7.00

Req: Returns the measured pIC50 for the input compound. Input: Cn1cc(-c2ccc(-c3cc(C(=O)N4CC[C@]45C[C@@H](NC#N)C5)on3)cc2)cn1
Resp: 6.00 to 7.00

Req: Returns the measured pIC50 for the input compound. Input: N#CN[C@H]1C[C@H](C(=O)Nc2ncc([C@@H]3CCCCO3)s2)C1
Resp: 5.00 to 6.00

Req: Returns the measured pIC50 for the input compound. Input: N#CN[C@H]1C[C@H](C(=O)Nc2sc(C3CCCCC3)nc2F)C1
Resp: 6.00 to 7.00

Req: Returns the measured pIC50 for the input compound. Input: CC(C)(C)[C@H]1CC[C@@H](NC(=O)[C@H]2C[C@H](NC#N)C2)CC1
Resp: 6.00 to 7.00

Req: Returns the measured pIC50 for the input compound. Input: N#CN[C@H]1C[C@H](C(=O)Nc2nc3cccc(OC4CCC4)c3s2)C1
Resp: 6.00 to 7.00
